Cited source for all entries: a melting point compilation (Tetko et al.; mined from patent text by program, amines drawn as free bases though some values may be those of a salt)

Known melting point of a selection of compounds

Check out these entries, answers already filled in.
- Compound: "CC(C)(C)OC(=O)NCCCCCNC1(c2ccccc2Cl)C(=O)Nc2ccc(Cl)cc21 (stereo not drawn)"
  melting point: "185 °C"
- Compound: "CCOCc1nc2c(N)nc(C)c(C)c2n1CCOCc1ccncc1"
  melting point: "143 to 145 °C"
- Compound: "COc1cc2c(cc1Cl)C(O)Cc1ccc(F)cc1S2 (stereo not drawn)"
  melting point: "143 to 145 °C"
- Compound: "O=C(Cc1ccc(F)cc1)c1cccs1"
  melting point: "61 to 62.5 °C"
- Compound: "Cc1cc(C)c(-c2cn(C)c3nc(N(C)C)n(C)c(=O)c23)c(C)c1"
  melting point: "127 to 128 °C"
- Compound: "N#CC(Nc1cc(Cl)c(Cl)cc1Cl)c1ccccc1 (stereo not drawn)"
  melting point: "124 °C"
- Compound: "COc1ccccc1N1CCN(CCCNC(=O)c2cccc3c(=O)c(C)c(CCc4ccccc4)oc23)CC1"
  melting point: "142 to 146 °C"

Now let's try a different one.
Request: Reported melting point for NC1=NC(c2ccccc2)=NCC1(N)N=O (stereo not drawn) : what is it?
Result: 243 to 244 °C
